Source of measurements: patent US7148245B2

READOUT LABEL: melting point

{"MOLECULE": "COc1ccccc1-c1ccc(-c2ccc(C(=O)O)cc2)cc1-c1ccc2c(c1)C(C)(C)CCC2(C)C [Example 23]", "melting point": "239 to 243 °C"}
{"MOLECULE": "CC1(C)CCC(C)(C)c2cc(-c3cc(-c4ccc(C(=O)O)c(O)c4)ccc3-c3ccccc3)ccc21 [Example 46]", "melting point": "266 to 268 °C"}
{"MOLECULE": "CC1(C)CCC(C)(C)c2cc(-c3cc(-c4ccc(C(=O)O)cc4)ccc3OCCCCCCCCCO)ccc21 [Example 6]", "melting point": "147 to 150 °C"}
{"MOLECULE": "COCOc1ccccc1-c1ccc(-c2ccc(C(=O)O)cc2)cc1-c1ccc2c(c1)C(C)(C)CCC2(C)C [Example 21]", "melting point": "218 to 221 °C"}

Query (molecule): CC1(C)CCC(C)(C)c2cc(-c3cc(-c4ccc(C(=O)O)cc4)ccc3-c3ccccc3O)ccc21 [Example 22] ; field requested: melting point
265 to 269 °C
